assay: in vivo; settings: male, Wistar Han, rat, in vivo; day 28; single IM Example 37A 56 mg/kg; read-out: Mean concentration of Example 37A
MEASURED PROPERTY: concentration at 28 day (ng/mL)

[[record]]
compound = "C#C[C@]1(COP(=O)(N[C@@H](C)C(=O)OC(CCCCCCCCCC)CCCCCCCCCC)Oc2ccccc2)O[C@@H](n2cnc3c(N)nc(F)nc32)C[C@@H]1O (single isomer, unassigned) [Example 37A]"
numeric_result = 4.16


###

assay: in vivo; conditions: male, Wistar Han, rat, in vivo; day 28; single IM Example 39A 58 mg/kg; read-out: Mean concentration of Example 39A
MEASURED PROPERTY: concentration at 28 day (ng/mL)

[[record]]
molecule = "C#C[C@]1(COP(=O)(N[C@@H](Cc2cc(F)cc(F)c2)C(=O)OCCCCCCCCCCCCCCCC)Oc2ccccc2)O[C@@H](n2cnc3c(N)nc(F)nc32)C[C@@H]1O (single isomer, unassigned) [Example 39A]"
unit_string = "ng/mL"
numeric_result = 7.98

